- TESTED_TARGET: T1, recombinant human Axl-Fc chimera (R&D Systems, Cat. no. 154-AL) (human, UniProt P30530 26-451)
- T1 construct: extracellular domain; Bought reagent; also called rhAxl-Fc; rhAxl; not shown: Fc part (and any linker or tag) of the bought chimera; not described
- ASSAY_PROTOCOL: SPR, Biacore 3000, 25 C, rhAxl-Fc immobilised on CM5 (190 RU), antibody injected, 1:1 Langmuir model
Reported koff values follow for various binders
Give the quantity in s⁻¹, number only.

mouse monoclonal antibody 10G5 (from hybridoma WR-10G5-E5) (antibody, IgG1, V domains shown, Whole mouse antibody purified from hybridoma supernatant; also called MAb 10G5) VH: QVQLQQSGAELVRPGASVKLSCKASGYSFTDFYINWVRQRPGQGLEWIARIFPGGDNTYYNEKFKGKATLTAEESSSTAYIQLSSLTSEDSAVYFCARRGLYYAMDYWGQGISVTVSS VL: DVLMTQTPLSLPVSLGDQASISCRSSQSLVHSNGIPYLHWYLQKPGQSPKLLIYRVSNRFSGVPDRFSGSGSGTDFTLKISRVEAEDLGVYFCSQGTHVPPTFGGGTKLEIK | 0.000439
chimeric (mouse variable/human constant) IgG1 antibody c10G5 (antibody, V domains shown, 10G5 VH and VL joined in frame to human IgG1 and C-kappa constant domains, made in CHO cells; also called chimeric 10G5; not shown: constant domains of the human IgG1 heavy chain; constant domain of the human light (C-kappa) chain) VH: QVQLQQSGAELVRPGASVKLSCKASGYSFTDFYINWVRQRPGQGLEWIARIFPGGDNTYYNEKFKGKATLTAEESSSTAYIQLSSLTSEDSAVYFCARRGLYYAMDYWGQGISVTVSS VL: DVLMTQTPLSLPVSLGDQASISCRSSQSLVHSNGIPYLHWYLQKPGQSPKLLIYRVSNRFSGVPDRFSGSGSGTDFTLKISRVEAEDLGVYFCSQGTHVPPTFGGGTKLEIK | 0.000169

Input line: Respond only with koff recorded for chimeric (mouse variable/human constant) IgG1 antibody c10C9 (antibody, V domains shown, 10C9 VH and VL joined in frame to human IgG1 and C-kappa constant domains, made in CHO cells; also called chimeric 10C9; not shown: constant domains of the human IgG1 heavy chain; constant domain of the human light (C-kappa) chain) VH: QVQLQQPGPELVKPGASVKISCKTSDYNFTRYYIHWVKQRPGQGLEWIGWIYPGTGDSKYNEKFKGRATLTADTSSSTAYMQLSSQTSEDSAVYFCARNGNYWYFDVWGAGTAVTVSS VL: DIVMTQAAPSGPVTPGESVSISCRSSKSLLHSNGNTYLYWFLQRPGQSPQLLIYRMSNLASGVPDRFSGSGSGTAFTLRISRVEAEDVGIYYCMQHREYPFTFGGGTKLEIK
Output line: 0.000219
